I'd appreciate it if you could supply Kd values for the items below.
Target: T1, EsCas13d, nuclease-dead (Eubacterium siraeum, UniProt B0MS50, R295A;H300A;R849A;H854A)
T1 sequence: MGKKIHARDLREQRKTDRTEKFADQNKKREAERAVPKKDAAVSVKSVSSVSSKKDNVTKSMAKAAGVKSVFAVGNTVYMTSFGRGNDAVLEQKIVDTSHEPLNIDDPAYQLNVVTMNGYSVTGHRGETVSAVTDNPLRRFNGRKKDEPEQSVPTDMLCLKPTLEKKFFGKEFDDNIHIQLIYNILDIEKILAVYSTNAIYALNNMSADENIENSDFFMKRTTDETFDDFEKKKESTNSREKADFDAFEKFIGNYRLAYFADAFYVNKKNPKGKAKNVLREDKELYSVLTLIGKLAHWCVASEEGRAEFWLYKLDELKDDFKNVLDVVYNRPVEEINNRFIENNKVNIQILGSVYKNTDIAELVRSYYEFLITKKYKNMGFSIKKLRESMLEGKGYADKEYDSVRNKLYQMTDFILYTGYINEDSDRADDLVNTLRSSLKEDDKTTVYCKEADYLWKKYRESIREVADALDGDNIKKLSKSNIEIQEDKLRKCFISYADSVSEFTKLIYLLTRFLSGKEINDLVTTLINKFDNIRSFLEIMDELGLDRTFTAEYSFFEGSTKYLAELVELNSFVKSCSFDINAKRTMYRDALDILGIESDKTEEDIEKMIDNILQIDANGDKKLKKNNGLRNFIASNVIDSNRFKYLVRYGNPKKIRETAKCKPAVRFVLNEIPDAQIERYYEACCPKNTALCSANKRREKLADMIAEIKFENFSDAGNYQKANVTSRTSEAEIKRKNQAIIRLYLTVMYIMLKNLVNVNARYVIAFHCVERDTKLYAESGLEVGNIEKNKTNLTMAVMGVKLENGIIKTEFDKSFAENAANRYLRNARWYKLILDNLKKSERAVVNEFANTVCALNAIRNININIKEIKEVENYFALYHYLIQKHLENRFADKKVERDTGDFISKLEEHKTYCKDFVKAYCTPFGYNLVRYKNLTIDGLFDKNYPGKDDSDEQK
Assay: crRNA (strand 1, pre-loaded); Mg2+; 40 mM Tris-HCl pH 7.5, 150 mM NaCl, 6 mM MgCl2, 1 mM DTT, 0.1% Tween-20, 0.2 mg/ml BSA; 25 C; 10 min per concentration, then washed
Settings: tags: His6-TwinStrep-SUMO cleaved; N-terminal SNAP kept (SNAP-Surface 488); label: 3' end held by stalled T7 RNA polymerase
Answers are plain numbers, in nM.

Solved cases (3 shown):
| binder | value.reported |
| --- | --- |
| target 1 insU 3' of 21,insG 3' of 19 (mixed) RNA 1: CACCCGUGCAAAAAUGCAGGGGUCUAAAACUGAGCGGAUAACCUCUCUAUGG RNA 2: GGGAAUGGAUCCACAUCUACGAAUUCGUACCUAUGAGAGAGGUUAUCCGCUCACCGAGAUCGGAAGAGCACACGU | 73 |
| target 1 insC 3' of 5,insA 3' of 2 (mixed) RNA 1: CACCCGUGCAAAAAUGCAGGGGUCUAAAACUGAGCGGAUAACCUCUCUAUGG RNA 2: GGGAAUGGAUCCACAUCUACGAAUUCGUACCAUAGAGAGGUUAUCCGCCUCAACCGAGAUCGGAAGAGCACACGU | 7.87 |
| target 2 MT 5'PFS CAU 3'PFS ACG (mixed) RNA 1: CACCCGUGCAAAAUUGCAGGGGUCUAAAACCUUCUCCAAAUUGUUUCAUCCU RNA 2: GGGAAUGGAUCCACAUCUACGAAUUCCAUAGGAUGAAACAAUUUGGAGAAGACGAGAUCGGAAGAGCACACGU | 7.9 |

Please find the next binder below.
What Kd value was documented for this binder, target 2 MT 5'PFS GUC 3'PFS UCG (mixed) RNA 1: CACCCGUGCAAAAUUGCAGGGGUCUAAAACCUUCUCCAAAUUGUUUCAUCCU RNA 2: GGGAAUGGAUCCACAUCUACGAAUUCGUCAGGAUGAAACAAUUUGGAGAAGUCGAGAUCGGAAGAGCACACGU ?
28
